- subject.of.test: T1, soluble human FcRn (shFcRn) (human, UniProt P55899 24-297; P61769 21-119, biotinylated with Sulfo-NHS-LC-Biotin in the ELISA; amine-coupled to a CM5 chip in SPR)
- T1 construct: also called biotinylated shFcRn
- assay.procedure: SPR, pH 7.4
Quick reference: pKd of the listed items.
pKd is a log-scale quantity: -log10 of the concentration expressed in molar.

>>> experimental_value("QRFXTGHFGXXYPCNGP (Pen4; Sar10; NMeLeu11; disulfide; C-terminal amide) [Peptide No. 187]")
6.64

Next binder, pKd to be filled in.
Can you look up the measured pKd of RFXTGHFGXXYPC (Pen3; Sar9; NMeLeu10; disulfide; C-terminal amide) [Peptide No. 235] for me?
6.77

Reference source for all entries: patent US8906844B2
